- subject_of_test: T1, hPDL1(19-239)-TVMV-His (human, UniProt Q9NZQ7 19-239)
- T1 construct: The text says amino acids 18-239, the construct name says 19-239; Expressed in HEK293T cells; Used at 10 nM final in the HTRF assay; also called PD-L1-His; PD-L1-TVMV-His
- procedure_details: HTRF competition, PD-1-Ig binding to PD-L1-His
Positions of bridges follow the written chain, without caps; N, C: chain ends. Non-standard residues stand in square brackets, D forms with d. NMeNle = CCCC[C@H](NC)C(=O)O; NMeV = CN[C@H](C(=O)O)C(C)C; Pip = O=C(O)[C@@H]1CCCCN1; NMeA = CN[C@@H](C)C(=O)O; Sar = CNCC(=O)O
Recorded pIC50, one value per entry.
// pIC50 here means minus log10 of the molar concentration (mol/L)

Take a look at these entries with their results.
binder: {CH2CO}-F[NMeV]NPHL[Sar]WSW[NMeNle][NMeNle]RCG-NH2 (thioether N-14; SMILES CCCC[C@H]1C(=O)N(C)[C@@H](CCCC)C(=O)N[C@@H](CCCNC(=N)N)C(=O)N[C@H](C(=O)NCC(N)=O)CSCC(=O)N[C@@H](Cc2ccccc2)C(=O)N(C)[C@@H](C(C)C)C(=O)N[C@@H](CC(N)=O)C(=O)N2CCC[C@H]2C(=O)N[C@@H](Cc2c[nH]cn2)C(=O)N[C@@H](CC(C)C)C(=O)N(C)CC(=O)N[C@@H](Cc2c[nH]c3ccccc23)C(=O)N[C@@H](CO)C(=O)N[C@@H](Cc2c[nH]c3ccccc23)C(=O)N1C) [Compound No. 41]
pIC50: 6.04
--
binder: {CH2CO}-F[NMeA]N[Pip]HL[Sar]WSW[NMeNle][NMeNle]RCG-NH2 (thioether N-14; SMILES CCCC[C@H]1C(=O)N(C)[C@@H](CCCC)C(=O)N[C@@H](CCCNC(=N)N)C(=O)N[C@H](C(=O)NCC(N)=O)CSCC(=O)N[C@@H](Cc2ccccc2)C(=O)N(C)[C@@H](C)C(=O)N[C@@H](CC(N)=O)C(=O)N2CCCC[C@H]2C(=O)N[C@@H](Cc2c[nH]cn2)C(=O)N[C@@H](CC(C)C)C(=O)N(C)CC(=O)N[C@@H](Cc2c[nH]c3ccccc23)C(=O)N[C@@H](CO)C(=O)N[C@@H](Cc2c[nH]c3ccccc23)C(=O)N1C) [Compound No. 44]
pIC50: 7.47
--
binder: {CH2CO}-F[NMeA]NPHLGWSW[NMeNle][NMeNle]RCG-NH2 (thioether N-14; SMILES CCCC[C@H]1C(=O)N(C)[C@@H](CCCC)C(=O)N[C@@H](CCCNC(=N)N)C(=O)N[C@H](C(=O)NCC(N)=O)CSCC(=O)N[C@@H](Cc2ccccc2)C(=O)N(C)[C@@H](C)C(=O)N[C@@H](CC(N)=O)C(=O)N2CCC[C@H]2C(=O)N[C@@H](Cc2c[nH]cn2)C(=O)N[C@@H](CC(C)C)C(=O)NCC(=O)N[C@@H](Cc2c[nH]c3ccccc23)C(=O)N[C@@H](CO)C(=O)N[C@@H](Cc2c[nH]c3ccccc23)C(=O)N1C) [Compound No. 12]
pIC50: 7.66

Next item in the queue.
Q) Specify measured pIC50 for {CH2CO}-F[NMeA]NPHL[Sar]WSW[NMeNle][NMeNle]RC-NH2 (thioether N-14; SMILES CCCC[C@H]1C(=O)N(C)[C@@H](CCCC)C(=O)N[C@@H](CCCNC(=N)N)C(=O)N[C@H](C(N)=O)CSCC(=O)N[C@@H](Cc2ccccc2)C(=O)N(C)[C@@H](C)C(=O)N[C@@H](CC(N)=O)C(=O)N2CCC[C@H]2C(=O)N[C@@H](Cc2c[nH]cn2)C(=O)N[C@@H](CC(C)C)C(=O)N(C)CC(=O)N[C@@H](Cc2c[nH]c3ccccc23)C(=O)N[C@@H](CO)C(=O)N[C@@H](Cc2c[nH]c3ccccc23)C(=O)N1C) [Compound No. 24] .
A) 8.05
